- SUBJECT OF TEST: HLA-DQ molecule DQB1*0503 (human)
- EXPERIMENT NOTES: inhibition of radiolabeled peptide binding to purified HLA-DQ
Item-by-item account of IC50
Reply numerically in nM, unit not repeated.

- BINDER: "EKALWIIFSQNMNIK [Cup s 1 (86-100) peptide EKALWIIFSQNMNIK]"
  IC50 / nM: 1930
- BINDER: "PARLFKAFVLDSDNL [Que a 1 (16-30) peptide PARLFKAFVLDSDNL]"
  IC50 / nM: 161

Turning now to a further binder:
Measured IC50 of NMNIKLKMPLYVAGH [Cup s 1 (96-110) peptide NMNIKLKMPLYVAGH] : 11700

Ref: patent US20150004189A1
